Entries and their T/C
System: L1210 leukemia ip in BDF1 mice, survival T/C
assayDetails: NCI In Vivo Anticancer Drug Screen. Data for tumor model L1210 Leukemia (intraperitoneal) in B6D2F1 (BDF1) mice
conditionParameters: endpoint: mean survival time; dose: 100.0 mg/kg/injection; schedule: Q01DX009 (ip); vehicle: acetone; higher = longer survival
Toxic doses and inconclusive results are not listed.

Ask: What measured T/C goes with "CC(=O)C[n+]1ccccc1" ?
Reply: 96 % of control

Ask: Now consider "C1=C(C2=CCCCC2)CCCC1" and answer again.
Reply: 108 % of control

Ask: "N[C@H](Cc1c[nH]c2ccccc12)C(=O)O" , same question.
Reply: 95 % of control

Ask: Entry CCC1(Br)OC1=O (centres undefined) please
Reply: 99 % of control

Ref: PubChem BioAssay AID248
